System: soybean (Glycine max)
Assay: Test C greenhouse herbicide test, pre- and postemergence
Type: in vivo
Conditions: Postemergence, 62 g ai/ha; 0 to 100 scale (0 no effect, 100 complete control)
MEASURED PARAMETER: Soybean plant response rating

{"COMPOUND": "COC(=O)Oc1c(Br)nn(C)c(=O)c1-c1c(C)ccc2ccccc12 [Compound 137]", "TARGET SYSTEM": "soybean (Glycine max)", "MEASURED PARAMETER": "Soybean plant response rating", "MEAS VALUE": 10}
{"COMPOUND": "CSCC(=O)Oc1c(C)nn(C)c(=O)c1-c1cccc2ccccc12 [Compound 171]", "TARGET SYSTEM": "soybean (Glycine max)", "MEASURED PARAMETER": "Soybean plant response rating", "MEAS VALUE": 30}
{"COMPOUND": "COc1nn(C)c(=O)c(-c2c(C)ccc3ccccc23)c1OC(C)=O [Compound 138]", "TARGET SYSTEM": "soybean (Glycine max)", "MEASURED PARAMETER": "Soybean plant response rating", "MEAS VALUE": 10}
{"COMPOUND": "Cc1ccc2ccccc2c1-c1c(OC(=O)N2CCOCC2)c(Br)nn(C)c1=O [Compound 176]", "TARGET SYSTEM": "soybean (Glycine max)", "MEASURED PARAMETER": "Soybean plant response rating", "MEAS VALUE": 10}
{"COMPOUND": "Cc1cc(C)c2ccccc2c1-c1c(OS(C)(=O)=O)c(C)nn(C)c1=O [Compound 154]", "TARGET SYSTEM": "soybean (Glycine max)", "MEASURED PARAMETER": "Soybean plant response rating", "MEAS VALUE": 20}
